Test system: Klebsiella pneumoniae
ASSAY: Antibacterial activity against Carbapenem-resistant Klebsiella pneumoniae FADD1-KP032 clinical isolates assessed as reduction in bacterial growth by broth microdilution method
Type: functional
MEASURE: MIC (µg/mL)
Give the value, in units of µg/mL, as a plain number.

What does the record list as MIC for CC[C@H](C)CCCCC(=O)N[C@@H](CCN)C(=O)N[C@H](C(=O)N[C@@H](CCN)C(=O)N[C@H]1CCNC(=O)[C@H](CC)NC(=O)[C@H](CCN)NC(=O)[C@H](CCN)NC(=O)[C@H](CC(C)C)NC(=O)[C@@H](Cc2ccccc2)NC(=O)[C@H](CCN)NC1=O)[C@@H](C)O ?
1

Request: CC[C@H](C)CCCCC(=O)N[C@@H](CCN)C(=O)N[C@H](C(=O)N[C@@H](CCN)C(=O)N[C@H]1CCNC(=O)[C@H](CN)NC(=O)[C@H](CCN)NC(=O)[C@H](CCN)NC(=O)[C@H](CC(C)C)NC(=O)[C@@H](Cc2ccccc2)NC(=O)[C@H](CCN)NC1=O)[C@@H](C)O
2
